Task for the reader: assign each of the following sequences its reported shrunken log2 fold change.
- System: Escherichia coli TOP10
- protocol: shrunken log2 fold change of peptide-encoding DNA abundance (4.5 h post-induction vs induction); higher = less antimicrobial activity (less host growth inhibition)
- recorded conditions: time post-induction: 4.5 h; library: site-saturation at positions 5, 18, 19, 20
Give bare numbers.

residues: RRIRTRPPRLPRPRPRPYEGPRP
study system: Escherichia coli TOP10
observed value: -0.0536
//
residues: RRIRDRPPRLPRPRPRPQRIPRP
study system: Escherichia coli TOP10
observed value: -0.142
//
residues: RRIRRRPPRLPRPRPRPMRDPRP
study system: Escherichia coli TOP10
observed value: 0.62
//
residues: RRIRGRPPRLPRPRPRPLATPRP
study system: Escherichia coli TOP10
observed value: 2.95
//
residues: RRIRVRPPRLPRPRPRPVLEPRP
study system: Escherichia coli TOP10
observed value: -0.0482
//
residues: RRIRERPPRLPRPRPRPWHAPRP
study system: Escherichia coli TOP10;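 note: peptides expressed intracellularly from a pBAD plasmid library in pooled LB shake-flask culture, induced with 0.3% L-arabinose, DNA abundance read by NGS, three biological replicates, DESeq2 with apeglm shrinkage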
observed value: 0.421

Batch: shrunken log2 fold change for all items listed.
1. RRIRTRPPRLPRPRPRPPNHPRP
2. RRIRPRPPRLPRPRPRPCGEPRP

1: -0.000973; 2: -0.0188
